# ASSAY TARGET: Edg 8 receptor (Homo sapiens)
# Sequence (Q9H228 whole entry): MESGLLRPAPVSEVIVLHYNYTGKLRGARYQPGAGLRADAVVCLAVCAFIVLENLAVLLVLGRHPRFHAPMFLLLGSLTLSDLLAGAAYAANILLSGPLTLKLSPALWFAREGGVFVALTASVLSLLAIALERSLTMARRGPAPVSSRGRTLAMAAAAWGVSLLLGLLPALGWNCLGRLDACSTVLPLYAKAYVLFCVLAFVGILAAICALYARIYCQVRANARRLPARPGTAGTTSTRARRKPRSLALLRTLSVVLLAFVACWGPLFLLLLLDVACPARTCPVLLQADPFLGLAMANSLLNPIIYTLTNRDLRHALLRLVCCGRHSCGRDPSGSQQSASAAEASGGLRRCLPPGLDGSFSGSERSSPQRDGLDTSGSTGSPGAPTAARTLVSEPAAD
# ASSAY PROCEDURE: LPA/S1P-stimulated calcium mobilization assay (FLIPR), HTC cells expressing Edg 8
pIC50: −log10 of the molar value.
QUANTITY: pIC50

compound=CCn1nc(C)c(-c2ccccc2O)c1-c1ccccc1 observed_measurement="< 4.70"

Please examine the following record next.
Given the entry CCOc1ccccc1N1C(=O)CC(N(O)c2ccccc2)C1=O (centres unmarked) , what pIC50 was observed with Edg 8 receptor (Homo sapiens)?
< 4.70

====

# ASSAY TARGET: Edg 1 receptor (Homo sapiens, UniProt P21453)
# Sequence (P21453 whole entry): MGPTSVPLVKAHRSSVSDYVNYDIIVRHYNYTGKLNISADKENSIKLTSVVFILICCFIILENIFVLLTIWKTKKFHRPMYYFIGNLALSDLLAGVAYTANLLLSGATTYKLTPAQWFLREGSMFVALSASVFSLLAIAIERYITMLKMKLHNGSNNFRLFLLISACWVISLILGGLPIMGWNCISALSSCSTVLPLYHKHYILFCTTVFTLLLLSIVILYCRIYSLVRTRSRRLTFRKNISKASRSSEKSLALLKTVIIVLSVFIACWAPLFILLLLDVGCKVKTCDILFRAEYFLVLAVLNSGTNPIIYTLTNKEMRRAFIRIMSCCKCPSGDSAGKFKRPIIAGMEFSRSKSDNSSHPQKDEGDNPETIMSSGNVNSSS
# ASSAY PROCEDURE: LPA/S1P-stimulated calcium mobilization assay (FLIPR), HTC cells expressing Edg 1
Can you tell me IC50 for the items I'm about to list?

molecule="CCn1nc(C)c(-c2ccccc2O)c1-c1ccccc1 [Compound 103]" assay_target="Edg 1 receptor (Homo sapiens, UniProt P21453)" quantity=IC50 observed_measurement="> 20 µM"

Let's switch to this molecule now.
Form field - read-out: IC50; system: Edg 1 receptor (Homo sapiens, UniProt P21453); submitted item: CCOc1ccccc1N1C(=O)CC(N(O)c2ccccc2)C1=O (centres unmarked) [Compound 101]
> 20 µM

====

What pIC50 was measured for each of the following?
# ASSAY TARGET: Edg-2 receptor (Homo sapiens)
# Sequence (Q92633 whole entry): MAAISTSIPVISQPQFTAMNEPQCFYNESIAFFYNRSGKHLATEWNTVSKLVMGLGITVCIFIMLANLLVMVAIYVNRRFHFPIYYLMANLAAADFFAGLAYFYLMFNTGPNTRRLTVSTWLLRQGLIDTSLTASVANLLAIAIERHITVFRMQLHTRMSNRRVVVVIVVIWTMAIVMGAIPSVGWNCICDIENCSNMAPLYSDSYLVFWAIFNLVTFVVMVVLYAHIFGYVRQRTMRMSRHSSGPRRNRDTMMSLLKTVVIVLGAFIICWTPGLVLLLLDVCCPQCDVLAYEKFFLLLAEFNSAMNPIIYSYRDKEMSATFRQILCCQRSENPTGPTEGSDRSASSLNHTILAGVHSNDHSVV
# ASSAY PROCEDURE: LPA/S1P-stimulated calcium mobilization assay (FLIPR), HTC cells expressing Edg 2
# EXPERIMENTAL CONDITIONS: HTC cells expressing Edg 2
One number for each entry, as −log10 of the molar value.

molecule=CCn1nc(C)c(-c2ccccc2O)c1-c1ccccc1 observed_measurement=6.29

Next:
# query: pIC50 of entry CCOc1ccccc1N1C(=O)CC(N(O)c2ccccc2)C1=O (centres unmarked)
5.79

====

# ASSAY TARGET: Edg-7 receptor (Homo sapiens)
# Sequence (Q9UBY5 whole entry): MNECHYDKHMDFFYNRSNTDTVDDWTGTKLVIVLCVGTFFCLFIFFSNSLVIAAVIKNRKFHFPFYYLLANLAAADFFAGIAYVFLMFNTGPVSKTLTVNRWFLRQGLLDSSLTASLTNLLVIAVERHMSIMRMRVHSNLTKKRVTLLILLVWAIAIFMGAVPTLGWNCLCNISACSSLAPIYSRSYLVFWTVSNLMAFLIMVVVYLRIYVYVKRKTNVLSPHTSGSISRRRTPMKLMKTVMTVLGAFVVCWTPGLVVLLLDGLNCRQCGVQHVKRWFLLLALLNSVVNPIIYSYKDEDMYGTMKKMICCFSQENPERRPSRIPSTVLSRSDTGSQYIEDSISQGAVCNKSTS
# ASSAY PROCEDURE: LPA/S1P-stimulated calcium mobilization assay (FLIPR), HTC cells expressing Edg 7
pIC50: −log10 of the molar value.
QUANTITY: pIC50

compound=CCn1nc(C)c(-c2ccccc2O)c1-c1ccccc1 observed_measurement="< 4.70"

Continue with the next compound.
Value lookup for pIC50; key = CCOc1ccccc1N1C(=O)CC(N(O)c2ccccc2)C1=O (centres unmarked)
< 4.70

====

# ASSAY TARGET: Edg-4 receptor (Homo sapiens, UniProt Q9HBW0)
# Sequence (Q9HBW0 whole entry): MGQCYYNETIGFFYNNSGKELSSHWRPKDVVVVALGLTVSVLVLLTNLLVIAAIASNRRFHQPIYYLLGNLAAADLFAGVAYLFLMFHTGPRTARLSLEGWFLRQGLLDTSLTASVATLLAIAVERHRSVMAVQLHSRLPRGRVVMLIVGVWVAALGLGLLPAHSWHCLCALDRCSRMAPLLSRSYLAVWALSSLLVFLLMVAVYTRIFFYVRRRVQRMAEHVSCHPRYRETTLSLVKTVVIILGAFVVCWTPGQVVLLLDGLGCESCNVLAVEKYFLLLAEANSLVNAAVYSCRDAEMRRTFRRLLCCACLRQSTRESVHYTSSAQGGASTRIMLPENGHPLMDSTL
# ASSAY PROCEDURE: LPA/S1P-stimulated calcium mobilization assay (FLIPR), HTC cells expressing Edg 4
Record form. Attribute: IC50. Fill in for each entry.

molecule="CCOc1ccccc1N1C(=O)CC(N(O)c2ccccc2)C1=O (centres unmarked) [Compound 101]" quantity=IC50 observed_measurement="> 20 µM"

Requested read-out: IC50. Entry: CCn1nc(C)c(-c2ccccc2O)c1-c1ccccc1 [Compound 103]
> 20 µM

====

# ASSAY TARGET: Edg 3 receptor (Homo sapiens)
# Sequence (Q99500 whole entry): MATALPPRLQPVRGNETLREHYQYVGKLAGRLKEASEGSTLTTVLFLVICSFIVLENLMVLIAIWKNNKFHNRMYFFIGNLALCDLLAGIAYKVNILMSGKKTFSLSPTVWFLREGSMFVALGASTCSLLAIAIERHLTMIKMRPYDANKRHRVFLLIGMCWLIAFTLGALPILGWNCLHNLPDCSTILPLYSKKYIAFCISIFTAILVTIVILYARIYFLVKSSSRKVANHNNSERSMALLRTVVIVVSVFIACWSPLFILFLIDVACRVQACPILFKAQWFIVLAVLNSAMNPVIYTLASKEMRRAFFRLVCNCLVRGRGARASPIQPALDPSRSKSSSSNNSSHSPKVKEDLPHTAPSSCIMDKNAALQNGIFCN
# ASSAY PROCEDURE: LPA/S1P-stimulated calcium mobilization assay (FLIPR), HTC cells expressing Edg 3
Kindly state IC50 for each of the entries shown.

compound=CCn1nc(C)c(-c2ccccc2O)c1-c1ccccc1 observed_measurement="> 20 µM"

--- query ---
Which IC50 is listed for CCOc1ccccc1N1C(=O)CC(N(O)c2ccccc2)C1=O (centres unmarked) ?
> 20 µM
